# assay summary: In vivo pharmacokinetic study in SD rats
# Design: species or system Sprague Dawley rats
# settings: intravenous 3 mg/kg, read-out: C0 (initial concentration)
Where a SMILES comes first, the peptide text is derived from it. [ ]: non-standard residue; d: D form. The star is where a group is joined. Gly(N-(2R-Ph-propyl)) = C[C@@H](CNCC(=O)O)c1ccccc1; Piperidin1yl(4-NH2,4-COOH) = NC1(C(=O)O)CCN(*)CC1; dAla(cPr) = N[C@H](CC1CC1)C(=O)O
measured endpoint: C0 (µM)
Field: numeric (µM). Do not append units.

### Prompt Return the recorded C0 value; entry: C[C@@H](CNCC(=O)N[C@H](Cc1ccccc1)C(=O)N[C@H](CC1CC1)C(=O)N[C@H](CCCCN)C(=O)N1CCC(N)(C(=O)O)CC1)c1ccccc1 [Compound 1] (H-[Gly(N-(2R-Ph-propyl))][dF][dAla(cPr)][dK]-{Piperidin1yl(4-NH2,4-COOH)})
### Response 17.6
